Values compiled from the supplement of paper PMC12632987.

Tested system: GABARAP, O95166
Sequence (O95166 whole entry, the tested form may be a part): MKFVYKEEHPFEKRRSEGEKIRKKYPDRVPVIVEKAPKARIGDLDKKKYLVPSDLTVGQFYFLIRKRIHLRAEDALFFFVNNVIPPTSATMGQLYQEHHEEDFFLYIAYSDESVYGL
Protocol: median log2 fold change of GCK-ALFA target abundance (FLAG IP / Myc IP barcode read proportion) (log2 ratio); each designed protein is fused to an ALFA-tag nanobody in HEK293 cells to bring the named protein to FLAG-tagged glucokinase (GCK); Myc marks an untargeted standard; higher = target protein stabilised (more abundant)
Reported conditions: target protein: 3xFLAG-MCP-GCK-ALFA reporter; HEK293 landing pad (RPLP)
Whole data set: some 4,500 sequences, median “median log2 fold change of GCK-ALFA target abundance (FLAG IP / Myc IP barcode read proportion)” near 0.078, cut for the lowest 2% near -0.6. Many of the other results were omitted from the sample, so the lowest values are more common in it than they were.
Entries and their measured median log2 fold change follow.
Number only, no unit.

[
  {
    "Binder": "GBRAP_80_6828 (protein) AEKELEAVIKELAEVDPEIAKLVEEAIEIAKELGVPLEVLLRFAKAILELAKVDKEKALELVKELLEELKKAKEEGNRDEAIALLYDAESEALLAVEELE",
    "Value reported": 0.0224
  },
  {
    "Binder": "GBRAP_160_4347 (protein) MEAAEKLIKELKEATERVIAEVDKLSVEQVAVVAAGEFGAVAMEAAEDERYSDEMVDVIIDAQDKILAFLDENKDASPEEIKEGIKKITEEAIKKIKEIA",
    "Value reported": 0.152
  }
]

--- query ---
Task: Fill blank: measured median log2 fold change of the binder GBRAP_160_4329 (protein) SEEFEKLIEFIDEEFEETKELIKGLSLEQVKVLIEGTFGEIIMEMSENESISDELVDFVVAERDALLATLDANPDLSEEEIKALIDEARERIKEALKKEA is ____.
Result: -0.22
